Target: 5-hydroxytryptamine receptor 2C (Homo sapiens)
VALUE KIND: pKi
Give bare numbers, as −log10 of the molar value.

Looking up `Cc1ccc(Sc2ccccc2N2CCNCC2)c(C)c1.Cl` , I see its pKi listed as 6.74
